Hello, the source for this data is ChEMBL document CHEMBL3112522, in case you need it.

# assay notes: Cytotoxicity against human SK-N-SH cells assessed as cell survival at 400 uM incubated for 1 hr followed by compound washout measured after 24 hrs by CCK-8 assay relative to control
# Type: cell-based
# conditions: read-out: Survival
Consider the following compounds; for each one, report its viability at 1 h, 400 µM.
Express it in %; write the number only.

viability at 1 h, 400 µM measured on `O=C1C=C2CCCC(Br)=C2O1` = 50

viability at 1 h, 400 µM measured on `O=C1C=C2CCCCC(Br)=C2O1` = 7

viability at 1 h, 400 µM measured on `O=C1C=C2CCC(Br)=C2O1` = 21

* * *

# Tested on: Pseudomonas aeruginosa
# assay notes: Toxicity in Pseudomonas aeruginosa PAO1 assessed as planktonic growth inhibition at 400 uM after 24 hrs
# Assay type: organism-based
# conditions: in vivo
value type: Activity

smiles text: O=C1C=C2CCCCC(Br)=C2O1
assayed system: Pseudomonas aeruginosa
measurement: Non-toxic
--
smiles text: O=C1C=C2CCCC(Br)=C2O1
assayed system: Pseudomonas aeruginosa
measurement: Non-toxic
--
smiles text: O=C1C=C(Br)/C(=C/Br)O1
assayed system: Pseudomonas aeruginosa
measurement: Toxic
--
smiles text: O=C1C=C2CCC(Br)=C2O1
assayed system: Pseudomonas aeruginosa
measurement: Non-toxic
